# Tested on: HeLa
# Assay Details: Cytotoxicity against human HeLa cells at 50 ug/ml after 24 hrs by BrdU incorporation assay relative to control
# Type: functional
# Conditions: read-out: GI
Entry flag: Condition met if inhibition of growth at 50 µg/mL reaches 20%; Condition not met if it does not.

Study these solved cases before continuing.
CCOC(=O)C/C(=N\N=C1/NCCN1c1ccc(C)cc1)C(=O)OCC
Condition not met
CCOC(=O)Cc1nnc2n(c1=O)CCN2c1cccc(Cl)c1
Condition not met
CCOC(=O)Cc1nnc2n(c1=O)CCN2c1ccccc1OC
Condition not met
CCOC(=O)C/C(=N\N=C1/NCCN1c1ccc(Cl)c(Cl)c1)C(=O)OCC
Condition met
CCOC(=O)Cc1nnc2n(c1=O)CCN2c1ccc(Cl)c(Cl)c1
Condition met

Q: I'd appreciate it if you could say whether CCOC(=O)C/C(=N\N=C1/NCCN1c1cccc(Cl)c1)C(=O)OCC has inhibition of growth at 50 µg/mL at least equal to 20%.
Ans: Condition not met

Q: I'd appreciate it if you could say whether CCOC(=O)C/C(=N\N=C1/NCCN1c1ccc(Cl)cc1)C(=O)OCC has inhibition of growth at 50 µg/mL at least equal to 20%.
Ans: Condition not met

---

# Test system: HeLa
# Assay Details: Cytotoxicity against human HeLa cells at 50 ug/ml after 72 hrs by BrdU incorporation assay relative to control
# Type: functional
# Conditions: read-out: GI
Entry flag: met if inhibition of growth at 50 µg/mL reaches 60%; not met if it does not.

Study these solved cases before continuing.
CCOC(=O)Cc1nnc2n(c1=O)CCN2c1ccccc1OC
not met
CCOC(=O)Cc1nnc2n(c1=O)CCN2c1ccc(C)cc1
met
CCOC(=O)Cc1nnc2n(c1=O)CCN2c1ccc(Cl)cc1
not met
CCOC(=O)Cc1nnc2n(c1=O)CCN2c1cccc(Cl)c1
not met
CCOC(=O)C/C(=N\N=C1/NCCN1c1ccc(C)cc1)C(=O)OCC
not met
CCOC(=O)Cc1nnc2n(c1=O)CCN2c1ccc(Cl)c(Cl)c1
met
CCOC(=O)C/C(=N\N=C1/NCCN1c1ccc(Cl)cc1)C(=O)OCC
not met
CCOC(=O)Cc1nnc2n(c1=O)CCN2c1ccccc1
met

Now look at this entry.
Q: I'd appreciate it if you could say whether CCOC(=O)C/C(=N\N=C1/NCCN1c1cccc(Cl)c1)C(=O)OCC has inhibition of growth at 50 µg/mL at least equal to 60%.
Ans: not met

---

# Assay Details: Cytotoxicity against human MM1S cells at 50 ug/ml after 48 hrs by BrdU incorporation assay relative to control
# Format: functional
# Conditions: MM1.S, read-out: GI
Value Type: inhibition of growth at 50 µg/mL (%)
Kindly answer with a numeric value in %, unit omitted.

Examples from the recorded data:
CCOC(=O)Cc1nnc2n(c1=O)CCN2c1ccc(C)cc1
60
CCOC(=O)Cc1nnc2n(c1=O)CCN2c1ccccc1OC
55
CCOC(=O)C/C(=N\N=C1/NCCN1c1ccc(Cl)c(Cl)c1)C(=O)OCC
80
CCOC(=O)C/C(=N\N=C1/NCCN1c1ccc(C)cc1)C(=O)OCC
70
CCOC(=O)C/C(=N\N=C1/NCCN1c1cccc(Cl)c1)C(=O)OCC
65
CCOC(=O)Cc1nnc2n(c1=O)CCN2c1cccc(Cl)c1
60

The reported value for CCOC(=O)Cc1nnc2n(c1=O)CCN2c1ccc(Cl)c(Cl)c1 in terms of inhibition of growth at 50 µg/mL is 65

The reported value for CCOC(=O)Cc1nnc2n(c1=O)CCN2c1ccc(Cl)cc1 in terms of inhibition of growth at 50 µg/mL is 75

The reported value for CCOC(=O)Cc1nnc2n(c1=O)CCN2c1ccccc1 in terms of inhibition of growth at 50 µg/mL is 30

The reported value for CCOC(=O)C/C(=N\N=C1/NCCN1c1ccc(Cl)cc1)C(=O)OCC in terms of inhibition of growth at 50 µg/mL is 75

Where do the numbers come from? From ChEMBL document CHEMBL3091361.
